target: Interleukin-23 receptor (Homo sapiens); test: Inhibition of interleukin-23 receptor in human DB cells assessed as reduction in IL-23-stimulated STAT3 phosphorylation incubated for 30 mins by HTRF assay; assay type: cell-based
*1 amine or outer side, *2 acyl side, *3 side chain or, on linkers, in order; H or OH if unused. Where a SMILES comes first, the peptide text is derived from it. Bridges are numbered along the chain shown (N, C = ends). [ ]: non-standard residue; d: D form. Abu(4-yl) = O=C([C@H](CC[*:3])N[*:1])[*:2]; 2Nal = N[C@@H](Cc1ccc2ccccc2c1)C(=O)O; AEF = NCCOc1ccc(C[C@H](N)C(=O)O)cc1; αMeL = CC(C)C[C@](C)(N)C(=O)O
ENDPOINT_NAME: IC50

// IC50 (Interleukin-23 receptor (Homo sapiens)) for CC(=O)NCCCC[C@H](NC(=O)C(C)(C)NC(=O)[C@H](Cc1ccc2ccccc2c1)NC(=O)[C@H](Cc1ccc(OCCNC(C)=O)cc1)NC(=O)[C@@H](NC(=O)[C@H](CCC(N)=O)NC(=O)[C@H](Cc1c[nH]c2ccccc12)NC(=O)[C@@H](NC(=O)[C@H](CCC(N)=O)NC(=O)[C@@H](NC(C)=O)C(C)(C)S)[C@@H](C)O)C(C)(C)S)C(=O)N[C@@H](CC(N)=O)C(=O)N[C@@H](CC(N)=O)C(N)=O = < 10 nM

// IC50 (Interleukin-23 receptor (Homo sapiens)) for CC(=O)N[C@H](C(=O)N[C@@H](CCC(N)=O)C(=O)N[C@H](C(=O)N[C@@H](Cc1c[nH]c2ccccc12)C(=O)N[C@@H](CCC(N)=O)C(=O)N[C@H](C(=O)N[C@@H](Cc1ccc(OCCN)cc1)C(=O)N[C@@H](Cc1ccc2ccccc2c1)C(=O)N[C@@](C)(CC(C)C)C(=O)N[C@@H](CCC(N)=O)C(=O)N[C@@H](CC(N)=O)C(=O)N[C@@H](CC(N)=O)C(N)=O)C(C)(C)S)[C@@H](C)O)C(C)(C)S = < 10 nM

// IC50 (Interleukin-23 receptor (Homo sapiens)) for CC(=O)N[C@H](C(=O)N[C@@H](CCC(N)=O)C(=O)N[C@H](C(=O)N[C@@H](Cc1c[nH]c2ccccc12)C(=O)N[C@@H](CCC(N)=O)C(=O)N[C@H](C(=O)N[C@@H](Cc1ccc(O)cc1)C(=O)N[C@@H](Cc1cccc2ccccc12)C(=O)N[C@@](C)(CCCN)C(=O)N[C@@H](CCC(=O)O)C(=O)N[C@@H](CC(N)=O)C(=O)NCC(N)=O)C(C)(C)S)[C@@H](C)O)C(C)(C)S = 25 to 100 nM

// IC50 (Interleukin-23 receptor (Homo sapiens)) for CC(=O)NCCCC[C@H](NC(=O)[C@](C)(CC(C)C)NC(=O)[C@H](Cc1ccc2ccccc2c1)NC(=O)[C@H](Cc1ccc(OCCN)cc1)NC(=O)[C@@H]1CSCC[C@H](NC(C)=O)C(=O)N[C@@H](CCC(N)=O)C(=O)N[C@@H]([C@@H](C)O)C(=O)N[C@@H](Cc2c[nH]c3ccccc23)C(=O)N[C@@H](CCC(N)=O)C(=O)N1)C(=O)N[C@@H](CC(N)=O)C(=O)N[C@@H](CC(N)=O)C(N)=O (Ac-[Abu(4-yl)]QTWQC[AEF][2Nal][αMeL]K(Ac)NN-NH2; thioether 1-6) = < 10 nM

// IC50 (Interleukin-23 receptor (Homo sapiens)) for CC(=O)N[C@H](C(=O)N[C@@H](CCCNC(=N)N)C(=O)N[C@H](C(=O)N[C@@H](Cc1c[nH]c2ccccc12)C(=O)N[C@@H](CCC(N)=O)C(=O)N[C@@H](CS)C(=O)N[C@@H](Cc1ccc(O)cc1)C(=O)N[C@@H](Cc1c[nH]c2ccccc12)C(=O)N[C@@H](CCCNC(=N)N)C(=O)N[C@@H](CCCCN)C(=O)N[C@@H](Cc1ccccc1)C(=O)NCC(=O)NCCOCC(=O)N[C@H](CCCCN)C(N)=O)[C@@H](C)O)C(C)(C)S = 100 to 1000 nM

// IC50 (Interleukin-23 receptor (Homo sapiens)) for COc1ccc(C[C@H](NC(=O)[C@@H](NC(=O)[C@H](CCC(N)=O)NC(=O)[C@H](Cc2c[nH]c3ccccc23)NC(=O)[C@@H](NC(=O)[C@H](CCC(N)=O)NC(=O)[C@@H](NC(=O)CCC(=O)O)C(C)(C)S)[C@@H](C)O)C(C)(C)S)C(=O)N[C@@H](Cc2ccc3ccccc3c2)C(=O)N[C@@](C)(CCCCN)C(=O)N[C@@H](CCCCNC(C)=O)C(=O)N[C@@H](CC(N)=O)C(=O)NCC(N)=O)cc1 = < 10 nM

// IC50 (Interleukin-23 receptor (Homo sapiens)) for CC(=O)N[C@@H](CS)C(=O)N[C@@H](C)C(=O)N[C@@H](CC(=O)O)C(=O)N[C@@H](Cc1c[nH]c2ccccc12)C(=O)N[C@H](C(=O)N[C@@H](CS)C(=O)N[C@@H](Cc1ccc(O)cc1)C(=O)N[C@@H](Cc1c[nH]c2ccccc12)C(=O)N[C@@H](Cc1cnc[nH]1)C(=O)N[C@H](C(=O)N[C@@H](Cc1ccccc1)C(=O)NCC(=O)N[C@H](CCCCN)C(=O)O)[C@@H](C)O)C(C)C = 100 to 1000 nM

// IC50 (Interleukin-23 receptor (Homo sapiens)) for CC(=O)N[C@@H](CS)C(=O)N[C@@H](CO)C(=O)N[C@H](C(=O)N[C@@H](Cc1c[nH]c2ccccc12)C(=O)N[C@@H](CCC(N)=O)C(=O)N[C@@H](CS)C(=O)N[C@@H](Cc1ccc(O)cc1)C(=O)N[C@@H](Cc1c[nH]c2ccccc12)C(=O)N[C@@H](CC(C)C)C(=O)N[C@@H](CCCCN)C(=O)N[C@@H](Cc1cnc[nH]1)C(=O)NCC(=O)NCC(=O)N[C@@H](CCC(=O)O)C(N)=O)[C@@H](C)O (Ac-CSTWQCYWLKHGGE-NH2) = 2 nM

// IC50 (Interleukin-23 receptor (Homo sapiens)) for CC(=O)N[C@H]1CCSC[C@@H](C(=O)N[C@@H](Cc2ccc(OCCN)cc2)C(=O)N[C@@H](Cc2c[nH]c3ccccc23)C(=O)N[C@@](C)(CCCCN)C(=O)N[C@@H](CCC(=O)O)C(=O)N[C@@H](CC(N)=O)C(=O)NCC(N)=O)NC(=O)[C@H](CCC(N)=O)NC(=O)[C@H](Cc2c[nH]c3ccccc23)NC(=O)[C@H]([C@@H](C)O)NC(=O)[C@H](CCC(N)=O)NC1=O = < 10 nM

// IC50 (Interleukin-23 receptor (Homo sapiens)) for CC(=O)N[C@H]1CCSC[C@@H](C(=O)N[C@H]2Cc3ccc(cc3)OCCNC(=O)C[C@@H](C(=O)NCC(N)=O)NC(=O)[C@H](CCC(N)=O)NC(=O)[C@](C)(CC(C)C)NC(=O)[C@H](Cc3ccc4ccccc4c3)NC2=O)NC(=O)[C@H](CCC(N)=O)NC(=O)[C@H](Cc2c[nH]c3ccccc23)NC(=O)[C@H]([C@@H](C)O)NC(=O)[C@H](CCC(N)=O)NC1=O = 100 to 1000 nM

----------
What IC50 was measured for each of the following?
Target: Interleukin-23 receptor (Homo sapiens)
Sequence (Q5VWK5 whole entry): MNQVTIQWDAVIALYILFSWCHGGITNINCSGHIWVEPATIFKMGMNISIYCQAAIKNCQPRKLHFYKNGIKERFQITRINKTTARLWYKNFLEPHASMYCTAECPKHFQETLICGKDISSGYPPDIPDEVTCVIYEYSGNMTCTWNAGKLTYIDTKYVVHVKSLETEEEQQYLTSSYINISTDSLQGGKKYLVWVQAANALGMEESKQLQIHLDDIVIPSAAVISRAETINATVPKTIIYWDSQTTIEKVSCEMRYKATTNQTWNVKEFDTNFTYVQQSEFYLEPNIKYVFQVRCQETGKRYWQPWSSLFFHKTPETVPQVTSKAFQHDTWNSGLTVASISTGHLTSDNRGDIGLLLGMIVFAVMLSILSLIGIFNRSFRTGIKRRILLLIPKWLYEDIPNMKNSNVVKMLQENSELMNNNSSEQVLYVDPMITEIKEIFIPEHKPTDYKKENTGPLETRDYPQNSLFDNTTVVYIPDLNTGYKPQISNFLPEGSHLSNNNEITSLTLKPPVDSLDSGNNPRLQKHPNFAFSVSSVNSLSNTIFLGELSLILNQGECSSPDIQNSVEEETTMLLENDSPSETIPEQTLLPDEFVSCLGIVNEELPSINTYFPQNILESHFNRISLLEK
Experiment: Inhibition of interleukin-23 receptor in human DB cells assessed as reduction in IL-23-stimulated STAT3 phosphorylation incubated for 30 mins by HTRF assay
Assay type: cell-based

// IC50 (Interleukin-23 receptor (Homo sapiens)) for COc1ccc(C[C@H](NC(=O)[C@@H](NC(=O)[C@H](CCC(N)=O)NC(=O)[C@H](Cc2c[nH]c3ccccc23)NC(=O)[C@@H](NC(=O)[C@H](CCC(N)=O)NC(=O)[C@@H](NC(C)=O)C(C)(C)S)[C@@H](C)O)C(C)(C)S)C(=O)N[C@@H](Cc2ccc3ccccc3c2)C(=O)N[C@@](C)(CCCCN)C(=O)N[C@@H](CCCCNC(C)=O)C(=O)N[C@@H](CC(N)=O)C(=O)N[C@@H](CC(N)=O)C(N)=O)cc1 = < 10 nM

// IC50 (Interleukin-23 receptor (Homo sapiens)) for CC(=O)N[C@H]1CCSC[C@@H](C(=O)N[C@@H](Cc2ccc(OCCN)cc2)C(=O)N[C@@H](Cc2ccc3ccccc3c2)C(=O)N[C@@](C)(CCCCN)C(=O)N[C@@H](CCC(=O)O)C(=O)N[C@@H](CC(N)=O)C(=O)NCC(N)=O)NC(=O)[C@H](CCC(N)=O)NC(=O)[C@H](Cc2c[nH]c3ccccc23)NC(=O)[C@H]([C@@H](C)O)NC(=O)[C@H](CCC(N)=O)NC1=O = < 10 nM

// IC50 (Interleukin-23 receptor (Homo sapiens)) for CC(=O)N[C@@H](CS)C(=O)N[C@@H](CCC(N)=O)C(=O)N[C@H](C(=O)N[C@@H](Cc1c[nH]c2ccccc12)C(=O)N[C@@H](CCC(N)=O)C(=O)N[C@@H](CS)C(=O)N[C@@H](Cc1ccc(O)cc1)C(=O)N[C@@H](Cc1c[nH]c2ccccc12)C(=O)N[C@@](C)(CC(C)C)C(=O)N[C@@H](CCC(=O)O)C(=O)N[C@@H](CC(N)=O)C(=O)NCC(N)=O)[C@@H](C)O = 5 nM

// IC50 (Interleukin-23 receptor (Homo sapiens)) for COc1ccc(C[C@H](NC(=O)[C@@H](NC(=O)[C@H](CCC(N)=O)NC(=O)[C@H](Cc2c[nH]c3ccccc23)NC(=O)[C@@H](NC(=O)[C@H](CCC(N)=O)NC(=O)[C@@H](NC(=O)CC(C)C)C(C)(C)S)[C@@H](C)O)C(C)(C)S)C(=O)N[C@@H](Cc2ccc3ccccc3c2)C(=O)N[C@@](C)(CCCCN)C(=O)N[C@@H](CCCCNC(C)=O)C(=O)N[C@@H](CC(N)=O)C(=O)NCC(N)=O)cc1 = 10 to 25 nM

// IC50 (Interleukin-23 receptor (Homo sapiens)) for CC(=O)NCCCC[C@H](NC(=O)C(C)(C)NC(=O)[C@H](Cc1ccc2ccccc2c1)NC(=O)[C@H](Cc1ccc(OCCN)cc1)NC(=O)[C@@H](NC(=O)[C@H](CCC(N)=O)NC(=O)[C@H](Cc1c[nH]c2ccccc12)NC(=O)[C@@H](NC(=O)[C@H](CCC(N)=O)NC(=O)[C@@H](NC(=O)[C@@H](CC(=O)O)NC(C)=O)C(C)(C)S)[C@@H](C)O)C(C)(C)S)C(=O)N[C@@H](CC(N)=O)C(=O)N[C@@H](CC(N)=O)C(N)=O = < 10 nM

// IC50 (Interleukin-23 receptor (Homo sapiens)) for COc1ccc(C[C@H](NC(=O)[C@@H](NC(=O)[C@H](CCC(N)=O)NC(=O)[C@H](Cc2c[nH]c3ccccc23)NC(=O)[C@@H](NC(=O)[C@H](CCC(N)=O)NC(=O)[C@@H](NC(C)=O)C(C)(C)S)[C@@H](C)O)C(C)(C)S)C(=O)N[C@@H](Cc2ccc3ccccc3c2)C(=O)N[C@@](C)(CCCN)C(=O)N[C@@H](CCCCNC(C)=O)C(=O)N[C@@H](CC(N)=O)C(=O)NCC(N)=O)cc1 = 25 to 100 nM

// IC50 (Interleukin-23 receptor (Homo sapiens)) for CC(=O)N[C@H](C(=O)N[C@@H](CC(N)=O)C(=O)N[C@H](C(=O)N[C@@H](Cc1c[nH]c2ccccc12)C(=O)N[C@@H](CCC(N)=O)C(=O)N[C@H](C(=O)N[C@@H](Cc1ccc(OCCN)cc1)C(=O)N[C@@H](Cc1ccc2ccccc2c1)C(=O)N[C@@](C)(CCCCN)C(=O)N[C@@H](CCC(=O)O)C(=O)N[C@@H](CC(N)=O)C(=O)NCC(N)=O)C(C)(C)S)[C@@H](C)O)C(C)(C)S = < 10 nM

// IC50 (Interleukin-23 receptor (Homo sapiens)) for COc1ccc(C[C@H](NC(=O)[C@@H]2CSCC[C@H](NC(C)=O)C(=O)N[C@@H](CCC(N)=O)C(=O)N[C@@H]([C@@H](C)O)C(=O)N[C@@H](Cc3c[nH]c4ccccc34)C(=O)N[C@@H](CCC(N)=O)C(=O)N2)C(=O)N[C@@H](Cc2ccc3ccccc3c2)C(=O)N[C@@](C)(CCCN)C(=O)N[C@@H](CCCCNC(C)=O)C(=O)N[C@@H](CC(N)=O)C(=O)NCC(N)=O)cc1 = < 10 nM

// IC50 (Interleukin-23 receptor (Homo sapiens)) for CC(=O)NCCCC[C@H](NC(=O)C(C)(C)NC(=O)[C@H](Cc1ccc2ccccc2c1)NC(=O)[C@H](Cc1ccc(OCCN)cc1)NC(=O)[C@@H](NC(=O)[C@H](CCC(N)=O)NC(=O)[C@H](Cc1c[nH]c2ccccc12)NC(=O)[C@@H](NC(=O)[C@H](CCC(N)=O)NC(=O)[C@@H](NC(=O)[C@H](CCCNC(=N)N)NC(C)=O)C(C)(C)S)[C@@H](C)O)C(C)(C)S)C(=O)N[C@@H](CC(N)=O)C(=O)N[C@@H](CC(N)=O)C(N)=O = < 10 nM

// IC50 (Interleukin-23 receptor (Homo sapiens)) for CC(=O)NCCCC[C@H](NC(=O)C(C)(C)NC(=O)[C@H](Cc1ccc2ccccc2c1)NC(=O)[C@H](Cc1ccc(OCCN)cc1)NC(=O)[C@@H](NC(=O)[C@H](CCC(N)=O)NC(=O)[C@H](Cc1c[nH]c2ccccc12)NC(=O)[C@@H](NC(=O)[C@H](CC(N)=O)NC(=O)[C@@H](NC(C)=O)C(C)(C)S)[C@@H](C)O)C(C)(C)S)C(=O)N[C@@H](CC(N)=O)C(=O)NCCC(N)=O = < 10 nM

Entry source: ChEMBL document CHEMBL4417631
